Parameter: binding signal. Scope: all listed entries.
- target-system: TDP-43 (Homo sapiens, UniProt Q13148 1-414)
- Sequence (Q13148 whole entry): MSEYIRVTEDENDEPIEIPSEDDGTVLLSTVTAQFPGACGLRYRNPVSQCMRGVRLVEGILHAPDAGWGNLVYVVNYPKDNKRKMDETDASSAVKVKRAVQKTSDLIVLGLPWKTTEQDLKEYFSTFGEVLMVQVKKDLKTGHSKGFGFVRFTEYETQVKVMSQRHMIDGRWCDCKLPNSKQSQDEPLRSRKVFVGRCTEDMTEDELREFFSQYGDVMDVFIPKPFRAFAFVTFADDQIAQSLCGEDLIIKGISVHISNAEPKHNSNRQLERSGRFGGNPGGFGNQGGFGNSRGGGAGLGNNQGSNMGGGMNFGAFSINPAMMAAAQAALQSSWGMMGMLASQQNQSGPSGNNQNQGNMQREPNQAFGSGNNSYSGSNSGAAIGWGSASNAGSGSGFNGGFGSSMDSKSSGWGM
- protocol-description: RNA Bind-n-Seq with designed 260-mer pool; 25 mM Tris-HCl, 150 mM KCl, 3 mM MgCl2, BSA (printed 500 mg/mL), 20 units/mL SUPERase IN; pH not stated; 500 nM RNA pool, 1 h, 4 C; TDP-43 5, 50, 500 nM; high values mean tight binding
- test-parameters: protein: recombinant; tags: SBP (GST cleaved off with PreScission; pGEX-GST-SBP)
Over roughly 9,900 sequences, “r (bound/input frequency ratio)” has its median near 0.7; the highest 2% begin near 6.5. The list comes from a sample in which the highest values are over-represented; it also holds close analogues and randomly drawn sequences.

binder	binding signal
ENSMUSG00000022095.260|Fam160b2 (ssRNA) RNA: GGGAGUUCUACAGUCCGACGAUCGCUUCGAUAUCCGCAUGCUAGCGAGCUAUGAAUGAAUGUGAGUGUGUGUGUGUGUGUGUGUGUGUGAGAGAGAGAGAGAGAGAGCGAGCUAUGAAUGAAUGUGAGUGUGUGUGUGUGUGUGUGUGAGAGAGAGAGAGAGAGAGAGAGAGCUGUGAGUACACAUGGGUGCUGGUGUGGGACAGGAGCAGAUCUUGGUGGAGUGGGUCUACACUUGAGAUUUGUACUCGUUUGAGAGGCUGGGCAAUACUCAAUGCACUUUGGCAUUUGCAUGGUGUCUUCACUCUUGCGGUCGCACUAGUGUGGAAUUCUCGGGUGUCAAGG	7.36 R (bound/input frequency ratio)
ENSMUSG00000022095.265|Fam160b2 (ssRNA) RNA: GGGAGUUCUACAGUCCGACGAUCGCUUCGAUAUCCGCAUGCUAUGUGUGUGUGUGUGUGAGAGAGAGAGAGAGAGAGCGAGCUAUGAAUGAAUGUGAGUGUGUGUGUGUGUGUGUGUGAGAGAGAGAGAGAGAGAGAGAGAGCUGUGAGUACACAUGGGUGCUGGUGUGGGACAGGAGCAGAUCUUGGUGGAGUGGGUCUACACUUGAGAUUUGUACUCGUUUGAGAGGCUGGGCAAUACUCAAUGCACUUUGGCAUUUGCAUGGUGUCUUCACAACAGCACAGCAAUAAACAUUGUGAUUGUCUCUUGCGGUCGCACUAGUGUGGAAUUCUCGGGUGUCAAGG	4.76 R (bound/input frequency ratio)
ENSMUSG00000022095.259|Fam160b2 (ssRNA) RNA: GGGAGUUCUACAGUCCGACGAUCGCUUCGAUAUCCGCAUGCUAGAGAGAGCGAGCUAUGAAUGAAUGUGAGUGUGUGUGUGUGUGUGUGUGUGUGAGAGAGAGAGAGAGAGAGCGAGCUAUGAAUGAAUGUGAGUGUGUGUGUGUGUGUGUGUGAGAGAGAGAGAGAGAGAGAGAGAGCUGUGAGUACACAUGGGUGCUGGUGUGGGACAGGAGCAGAUCUUGGUGGAGUGGGUCUACACUUGAGAUUUGUACUCGUUUGAGAGGCUGGGCAAUACUCAAUGCACUUUGGCAUUUGCAUGGUGCUCUUGCGGUCGCACUAGUGUGGAAUUCUCGGGUGUCAAGG	5.88 R (bound/input frequency ratio)
ENSMUSG00000061578.1371|Ksr2 (ssRNA) RNA: GGGAGUUCUACAGUCCGACGAUCGCUUCGAUAUCCGCAUGCUACUUACAUCUCUGACCCAGUGAUCUUUCUAGGGGUCUGUCACAUGUCCCAACAGGUGGACAGCUCUCCAAGUCACCAACCUGAGGAAAAUAUCCCUCCUUGUAAAAAGGCUUUCUCUUUGUAAAUGAUUCUGUUGCCUUUUUCUAAACACAAAGUAUAUAUACCUAUAAAUGCUAUAUAUAUUAUAUAUGUGUAUAUACAUAAAGACUACUUCUUGUACAGCCCUCCACGGACCUCAGGCCCACUGUUUUCUCCAUGUCUGCUCUUGCGGUCGCACUAGUGUGGAAUUCUCGGGUGUCAAGG	0.0492 R (bound/input frequency ratio)
